Assay: NCI Yeast Anticancer Drug Screen. Data for the rad50 strain (AID 155);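 further: 0% = growth of vehicle-only cultures of the same strain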
Conditions: S. cerevisiae rad50 strain growth inhibition, active compounds read high; at 50.0 µM unless noted
This is part of a sample that, as a whole, favours compounds with a hit. Of some 79,000 tested, about 15% had one in any assay.
experimentalEndpoint: growth inhibition (%)
Reply numerically in %, unit not repeated.

Given the entry c1ccc(-c2cn(-c3ccccc3)nn2)cc1 , report its measured growth inhibition.
-1

Now consider O=C1/C(=C\c2ccccc2)Sc2cc[nH]c21 and answer again.
13.5

Now consider CCN(CC)C(=S)Oc1ccc(OC(=S)N(CC)CC)cc1 and answer again.
30.6

Now consider CC(=O)Nc1ccc2nc(SC(C)C)sc2c1 and answer again.
39.4

Now consider CC1=C(CCC(=O)O)C(=O)C(CCC(=O)O)C(C)(C)C1 (configuration not stated) and answer again.
19.4

Now consider O=C(O)c1cc(Cl)cc(C(=O)O)n1 and answer again.
-19.4

Now consider CC1CCCN1CCOC(=O)C(c1ccccc1)C1CCCC1 (configuration not stated) and answer again.
-4.65

----------
Experiment: NCI Yeast Anticancer Drug Screen. Data for the bub3 strain (AID 167)
Conditions: S. cerevisiae bub3 mutant strain, active compounds read high; at 50.0 µM unless noted
About 79,000 compounds went through this panel and 15% of them were active in at least one assay; those are over-represented in the sample as a whole.
Kindly state growth inhibition for each of the entries shown.
Reply numerically in %, unit not repeated.

Given the entry COc1ccccc1C(=O)Oc1ccc(OC(=O)c2ccccc2OC)c(C(C)=O)c1 , report its measured growth inhibition.
20.2

Now consider CC(Cl)(c1ccccc1)C1OCCO1 (stereo unspecified) and answer again.
-5.9

Now consider COC(=O)NC1C(OC(C)=O)C(OC(C)=O)C(COC(C)=O)OC1n1ccc(NC(C)=O)nc1=O (stereo unspecified) and answer again.
0.15

Now consider CN(C)c1ccc(/C=C(\C#N)C(=O)O)cc1 and answer again.
30.8

Now consider Cc1ccc(C(CC(=O)C(C)(C)CN2CCCCC2)SCCS(=O)(=O)O)cc1 (stereo unspecified) and answer again.
4.3

Now consider CC1=NN(C(=O)c2ccc(Cl)cc2)C(=O)/C1=C/c1cccc([N+](=O)[O-])c1 and answer again.
-15.9

Now consider Cc1ccc2[nH]c(=O)[nH]c(=O)c2c1 and answer again.
-3.5

Now consider COCN1C(=N)C(C(=O)OC(C)(C)C)=C2C=C(O)C=CC21C (stereo unspecified) and answer again.
22.2

Now consider NNC(=O)C(c1ccccc1)c1ccccc1 and answer again.
-28.9

Now consider O=C1c2c(Br)sc(Br)c2C(NC(=O)C(F)(F)F)C1O (stereo unspecified) and answer again.
3.95

Now consider CC12CCC([C@H](C(O)C3CCCCC3)C1=O)C2(C)C (stereo partly specified) and answer again.
-5.7

----------
Kindly state growth inhibition for each of the entries shown.
Assay: NCI Yeast Anticancer Drug Screen. Data for the rad50 strain (AID 155);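 further: 0% = growth of vehicle-only cultures of the same strain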
Settings: S. cerevisiae rad50 strain growth inhibition; at 5.0 µM (retest, dose inferred, filed as 0.5); active compounds read high
The panel holds about 79,000 compounds, 15% with a hit somewhere; the sample as a whole holds those more often. The source made the active and inactive calls. No stated cut-off is given here; in the data, active means growth inhibition above about 70%; inactive means the rest.

Given the entry CC(O)C(=O)NC1CCCCC1 (centres undefined) , report its measured growth inhibition.
3% (inactive)

Now consider NN1CCOC(c2ccccc2)C1 (centres undefined) and answer again.
15% (inactive)

Now consider Fc1ccc([I+]c2ccc(F)cc2)cc1 and answer again.
12% (inactive)

Now consider CCCCNc1ccc(Nc2ccccc2)cc1 and answer again.
1% (inactive)

Now consider CCCCOC(=O)/C=C\C(=O)NC(N)=O and answer again.
4% (inactive)

Now consider CC(C)C(C)(C)c1ccc(O)cc1 and answer again.
-34% (inactive)

Now consider C/C(CC(C)C(=O)O)=N/NC(N)=O (centres undefined) and answer again.
0% (inactive)

Now consider CC(C)NC(=O)N/C=C(\C#N)C(N)=O and answer again.
4% (inactive)

Now consider COc1ccc(Nc2ccc3ccccc3c2)cc1 and answer again.
6% (inactive)

Now consider N#CC(C#N)N=Nc1cc(Cl)ccc1Cl and answer again.
20% (inactive)

Now consider Oc1ccc(Cc2ccccc2Cl)c(O)c1 and answer again.
1% (inactive)

Now consider CN(C)c1ccc(/C=C\C(=O)c2ccccc2)cc1 and answer again.
7% (inactive)

Now consider N#CC(C#N)N=Nc1ccc(Cl)cc1 and answer again.
26% (inactive)

Now consider CC(CC=O)CC=O and answer again.
15% (inactive)

----------
Experiment: NCI Yeast Anticancer Drug Screen. Data for the mec2-1 strain (AID 157)
Conditions: S. cerevisiae mec2-1 strain, active compounds read high; at 50.0 µM unless noted
This is part of a sample that, as a whole, favours compounds with a hit. Of some 79,000 tested, about 15% had one in any assay.
experimentalEndpoint: growth inhibition (%)
Reply numerically in %, unit not repeated.

Given the entry O=C(c1ccccc1)c1ccc2c(c1)N=C(c1ccc(Cl)c(Cl)c1)CC(c1ccc3ccccc3c1)N2 (stereo not given) , report its measured growth inhibition.
15.4

Now consider CC(=O)NC1CCC(CCC2CCCCC2)CC1 (stereo not given) and answer again.
5.3

Now consider Clc1ccc2[nH]c3c(c2c1)CCCC3 and answer again.
0.45

Now consider CCCCN(CCCC)C(=O)c1cccc(C)c1 and answer again.
8.1

Now consider C/C(=N/NC(N)=O)C1CCc2ccccc2C1 (stereo not given) and answer again.
-6.9

Now consider CC(=O)NC1=NC(=O)/C(=C/c2ccccc2Cl)N1C and answer again.
-53.8

Now consider O=C1NCCCc2nonc21 and answer again.
16.4

Now consider C=C(C)C1CC[C@@](C)(O)[C@H](C#N)C1 (stereo not given in full) and answer again.
-15.7

Now consider CC1CCCC(CC(=O)O)(CC(=O)O)C1 (stereo not given) and answer again.
-33.6

Now consider CCCCOP(=O)(Nc1ccc([N+](=O)[O-])cc1)OCCCC and answer again.
86.3

Now consider Cc1cc(=O)[nH]c(NN2C(Cl)C(=O)C2c2ccccc2O)n1 (stereo not given) and answer again.
-31.5

Now consider CC(C)(C)OC(=O)NNS(=O)(=O)CCC(NC(=O)OCc1ccccc1)C(=O)OCc1ccccc1 (stereo not given) and answer again.
93.2

Now consider Cc1ccc(S(=O)(=O)OC2CCSCC2)cc1 and answer again.
-10.3

Now consider CC(/C(=N/O)c1ccccc1)N1C(=O)c2ccccc2C1=O (stereo not given) and answer again.
-12.9

Now consider C=CCOCC(O)CNCC(O)COCC=C (stereo not given) and answer again.
-33.7

Now consider CNc1c(F)c(C#N)c(F)c(F)c1C#N and answer again.
-6.95

Now consider Cc1cc(Cl)ccc1NC(=O)CC/C(CC(=O)C(C)C)=N\NC(=O)C[n+]1ccccc1 and answer again.
3.45

Now consider c1ccc2c(c1)nnn2C1CCCCO1 (stereo not given) and answer again.
-13.2

Now consider CCCCC1(CC)COC(=O)N(C)C1 (stereo not given) and answer again.
4.95

Now consider OCCNc1cccc2ccccc12 and answer again.
-4.15

Now consider O=C(O)/C=C\C(=O)Nc1ccc2c(c1)Cc1cc(O)ccc1-2 and answer again.
30.8

Now consider Cc1ccccc1NC(=O)C(=O)CC(=O)c1sc(-n2nc(-c3ccccc3)cc2-c2ccccc2)nc1C and answer again.
-4.3

Now consider CC1CCCCN1Cc1ccccc1COC(=O)c1ccc([N+](=O)[O-])cc1Cl (stereo not given) and answer again.
30.4

Now consider O=C(OCc1ccccc1CN1CCCCC1)c1cccc(Cl)c1 and answer again.
-7.7

Now consider Nn1c(N=Nc2c(O)[nH]c3ccccc23)n[nH]c1=S and answer again.
5.5

----------
Test: NCI Yeast Anticancer Drug Screen. Data for the sgs1 mgt1 strain (AID 161);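 further: 0% = growth of cultures given vehicle only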
Conditions: S. cerevisiae sgs1 mgt1 strain, active compounds read high; at 50.0 µM unless noted
About 79,000 compounds went through this panel and 15% of them were active in at least one assay; those are over-represented in the sample as a whole. Active and inactive are the calls of the source. No stated cut-off is given here; in the data, active means growth inhibition above about 70%; inactive means the rest.
Kindly state growth inhibition for each of the entries shown.

Given the entry CC(C)(C)NNC(=O)CCn1[nH]c(=O)c(Cl)c(Cl)c1=O , report its measured growth inhibition.
-18.9% (inactive)

Now consider CCN1CCC(O)C1 (stereo not drawn) and answer again.
19.2% (inactive)

Now consider O=C(NCc1ccccc1)C(=O)NCc1ccccc1 and answer again.
-7.25% (inactive)

Now consider CCCCCc1cc[n+](CC(=O)c2ccc(F)cc2)cc1 and answer again.
23.1% (inactive)

Now consider Cc1ccccc1C(=O)c1ccccc1C and answer again.
-7.2% (inactive)

Now consider Cc1cccc(CO)c1NC(=O)NCCCl and answer again.
-4.55% (inactive)

Now consider N#CCCN1CCCC(=O)NC1=O and answer again.
-5.35% (inactive)

Now consider CC(C)CCO/N=C(\N)N=C(N)N and answer again.
14.3% (inactive)

Now consider CC1=C2CN(C(=O)OCC(C)C)CCC2C2=C(C(=O)c3ccccc3C2=O)C1C (stereo not drawn) and answer again.
39.6% (inactive)

Now consider COc1ccc(/C=N/NC(=O)c2sc(=S)n(-c3ccccc3)c2N)cc1 and answer again.
-40.1% (inactive)

Now consider ON=C(c1ccccn1)c1ccccn1 and answer again.
7.05% (inactive)

Now consider COc1cccc2cc3c(cc12)C(=O)C(C)=C(C)C3=O and answer again.
-3.45% (inactive)

Now consider CCCN(CCC)C(=O)c1ccccc1C and answer again.
6.65% (inactive)
